tested on: MS2 coat protein; test: apparent KD of MS2 coat protein, switch ON state; designed switch direction (-1 OFF switch, 1 ON switch): 1; higher = weaker reporter binding; conditions: FMN input: 0 or 200 uM; Eterna round: R93 (includes R88 designs)
Listed next: entries and their corresponding apparent KD of MS2 coat protein.
Lab book: enter the figure in nM, no units written.

The cases that follow already have their apparent KD of MS2 coat protein on record.
chain_sequence="AAUAUACAUGAGGAUCACCCAUGUUUUAAUAACGCAGGAUAUACGGGUGAAAACAGCAUAGUAGAAGGGCGAAAAA [SameState1 Malc#1]" measured_target="MS2 coat protein" experimental_endpoint="apparent KD of MS2 coat protein" recorded_measurement=31.8
chain_sequence="GUGAGGAAGAGAGAGGAUAUCCAAAGGAAAACAUGAGGAUCACCCAUGUAAAAGGUAGGAAAUUGGGAGAAGGCUCAAGAGAGAG [salish99-ss2-067]" measured_target="MS2 coat protein" experimental_endpoint="apparent KD of MS2 coat protein" recorded_measurement=40.2

Problem: API: value(readout= apparent KD of MS2 coat protein, system= MS2 coat protein, query= AAUACACAUGAGGAUCACCCAUGUAGAAAGAAGGCAGGAUAUCAGAUCCACAUGUGAUAAUGAGAAGGGCCAAUAA [SS 1 Tesla 9] )
Solution: 21.1
